Would you kindly list IC50 for each of these compounds?
- Subject of test: BRD4 bromo domain 2 [BRD4(2)] (Homo sapiens, UniProt O60885)
- Construct: N-terminally His6-tagged BRD4(2) (amino acids 357-445)
- Experimental details: BRD4/acetylated peptide H4 binding assay (TR-FRET), BRD4 bromo domain 2
- Run conditions: inhibition of BRD4(2)/Ac-H4 peptide interaction
Number in nM, nothing else.

Data request: Write down the reported IC50 (system: BRD4 bromo domain 2 [BRD4(2)] (Homo sapiens, UniProt O60885)) of "C[C@@H]1C(=O)N(C)c2ccc(Nc3cccc(C(=O)NCCN(C)C)c3)nc2N1C1CCCC1"
Data returned: 101

Data request: Write down the reported IC50 (system: BRD4 bromo domain 2 [BRD4(2)] (Homo sapiens, UniProt O60885)) of "C[C@@H]1C(=O)N(C)c2ccc(Nc3cccc(S(=O)(=O)N4CCN(C)CC4)c3)nc2N1C1CCN(C(=O)OC(C)(C)C)CC1"
Data returned: 133

Data request: Write down the reported IC50 (system: BRD4 bromo domain 2 [BRD4(2)] (Homo sapiens, UniProt O60885)) of "C[C@@H]1C(=O)N(C)c2ccc(Nc3cccc(S(=O)(=O)N(C)C)c3)cc2N1C1CCNCC1"
Data returned: 97

###

Would you kindly list pIC50 for each of these compounds?
- Subject of test: BRD4 bromo domain 2 [BRD4(2)] (Homo sapiens, UniProt O60885)
- Construct: N-terminally His6-tagged BRD4(2) (amino acids 357-445)
- Experimental details: BRD4/acetylated peptide H4 binding assay (TR-FRET), BRD4 bromo domain 2
- Run conditions: inhibition of BRD4(2)/Ac-H4 peptide interaction
Scale: negative log10 of molar concentration, which is what pIC50 denotes.

Data request: Give the measured pIC50 for COc1ccc(C(=O)N[C@H]2CC[C@@H](N3CCN(C4CC4)CC3)CC2)cc1Nc1ccc2c(n1)N(C1CCOCC1)[C@H](C)C(=O)N2C [Example 90]
Data returned: 6.48

Data request: Give the measured pIC50 for Cc1nnc(-c2cccc(Nc3ccc4c(n3)N(C3CCOCC3)[C@H](C)C(=O)N4C)c2)o1 [Example 134]
Data returned: 6.72

Data request: Give the measured pIC50 for CC(C)N1c2nc(Nc3cccc(C(=O)NCCN(C)C)c3)ccc2N(C)C(=O)[C@H]1C [Example 97]
Data returned: 6.75

Data request: Give the measured pIC50 for CC(C)N1CCN(C(=O)c2cccc(Nc3ccc4c(n3)N(Cc3ccccc3)[C@H](C)C(=O)N4C)c2)CC1 [Example 76]
Data returned: 6.97

Data request: Give the measured pIC50 for CC(C)N1c2nc(Nc3cccc(S(=O)(=O)NCCN(C)C)c3)ccc2N(C)C(=O)[C@H]1C [Example 55]
Data returned: 6.83

Data request: Give the measured pIC50 for C[C@@H]1C(=O)N(C)c2ccc(Nc3cccc(C(=O)NC4CCN(C)CC4)c3)nc2N1Cc1ccccc1 [Example 73]
Data returned: 7.07

Data request: Give the measured pIC50 for C[C@@H]1C(=O)N(C)c2ccc(Nc3cccc(S(=O)(=O)NC4CCN(C)CC4)c3)nc2N1C1CCCCCC1 [Example 48]
Data returned: 7.00

Data request: Give the measured pIC50 for C[C@@H]1C(=O)N(C)c2ccc(Nc3cccc(C(=O)N4CCN(C)CC4)c3)nc2N1C1CCOCC1 [Example 15]
Data returned: 6.71

###

- Subject of test: BRD4 bromo domain 2 [BRD4(2)] (Homo sapiens, UniProt O60885)
- Construct: N-terminally His6-tagged BRD4(2) (amino acids 357-445)
- Experimental details: BRD4/acetylated peptide H4 binding assay (TR-FRET), BRD4 bromo domain 2
- Run conditions: inhibition of BRD4(2)/Ac-H4 peptide interaction
pIC50: −log10 of the molar value.
Quick rule for you: pIC50 at 7 or higher means 1, lower means 0.

Data request: Identify whether the reported pIC50 of the following molecule is 7 or greater: COc1ccc(S(=O)(=O)N2CCN(C)CC2)cc1Nc1ccc2c(n1)N(C1CCOCC1)[C@H](C)C(=O)N2C [Example 40]
Data returned: 1

Data request: Identify whether the reported pIC50 of the following molecule is 7 or greater: C[C@@H]1C(=O)N(C)c2ccc(N(C)c3cccc(S(=O)(=O)N(C)C)c3)cc2N1C1CCN(C(=O)OC(C)(C)C)CC1 [Example 70]
Data returned: 0

Data request: Identify whether the reported pIC50 of the following molecule is 7 or greater: Cc1cccc(N2c3nc(Nc4cccc(S(=O)(=O)N5CCOCC5)c4)ccc3N(C)C(=O)C2C)c1 (centres unmarked) [Example 64]
Data returned: 0

Data request: Identify whether the reported pIC50 of the following molecule is 7 or greater: C[C@@H]1C(=O)N(C)c2ccc(Nc3cccc(S(=O)(=O)N4CCN(C)CC4)c3)nc2N1C1CCNCC1 [Example 125]
Data returned: 1

Data request: Identify whether the reported pIC50 of the following molecule is 7 or greater: C[C@@H]1C(=O)N(C)c2ccc(Nc3cccc(S(=O)(=O)N4CC5(CCC5)C4)c3)nc2N1C1CCN(C(=O)OC(C)(C)C)CC1 [Example 60]
Data returned: 0

Data request: Identify whether the reported pIC50 of the following molecule is 7 or greater: COCCN1c2nc(Nc3cccc(C(=O)N4CCN(C)CC4)c3)ccc2N(C)C(=O)[C@H]1C (stereo in doubt) [Example 117]
Data returned: 0

Data request: Identify whether the reported pIC50 of the following molecule is 7 or greater: C[C@@H]1C(=O)N(C)c2ccc(Nc3cccc(S(=O)(=O)N(C)C)c3)nc2N1C1CCN(C(=O)OC(C)(C)C)CC1 [Example 61]
Data returned: 0

Data request: Identify whether the reported pIC50 of the following molecule is 7 or greater: C[C@@H]1C(=O)N(C)c2ccc(Nc3cccc(C(=O)NC4CCN(C)CC4)c3)nc2N1C1CCC(C)(C)CC1 [Example 96]
Data returned: 0

Data request: Identify whether the reported pIC50 of the following molecule is 7 or greater: COc1ccc(Nc2ccc3c(n2)N(C2CCOCC2)[C@H](C)C(=O)N3C)cc1C(=O)NC1CCN(C)CC1 [Example 81]
Data returned: 0

Data request: Identify whether the reported pIC50 of the following molecule is 7 or greater: C[C@@H]1C(=O)N(C)c2ccc(Nc3cccc(C(=O)N4CCN(C)CC4)c3)nc2N1C1CCNCC1 [Example 130]
Data returned: 0

###

- Subject of test: BRD4 bromo domain 1 [BRD4(1)] (Homo sapiens, UniProt O60885)
- Construct: N-terminally His6-tagged BRD4(1) (amino acids 67-152)
- Experimental details: BRD4/acetylated peptide H4 binding assay (TR-FRET), BRD4 bromo domain 1
- Run conditions: inhibition of BRD4(1)/Ac-H4 peptide interaction
Readout type: IC50

Data request: Give the measured IC50 for C[C@@H]1C(=O)N(C)c2ccc(Nc3cccc(C(=O)NC4CCN(C)CC4)c3)cc2N1C1CCOCC1 [Example 109]
Data returned: 521 nM

Data request: Give the measured IC50 for CC(C)NS(=O)(=O)c1cccc(Nc2ccc3c(n2)N(C2CCOCC2)[C@H](C)C(=O)N3C)c1 [Example 42]
Data returned: 36 nM

Data request: Give the measured IC50 for C[C@@H]1C(=O)N(C)c2ccc(Nc3cccc(C(=O)N[C@H]4CC[C@H](N5CCN(CC6CC6)CC5)CC4)c3)nc2N1C1CCOCC1 [Example 14]
Data returned: 144 nM

Data request: Give the measured IC50 for COCCN1c2nc(Nc3cccc(S(=O)(=O)N4CCOCC4)c3)ccc2N(C)C(=O)C1C (racemic) [Example 49]
Data returned: 112 nM

Data request: Give the measured IC50 for COc1ccc(Nc2ccc3c(n2)N(C2CCOCC2)[C@H](C)C(=O)N3C)cc1C(=O)NC1CCC(N2CCC(F)(F)CC2)CC1 (some centres unmarked) [Example 89]
Data returned: 399 nM

Data request: Give the measured IC50 for C[C@@H]1C(=O)N(C)c2ccc(Nc3cccc(S(=O)(=O)N4CCN(C)CC4)c3)nc2N1C1CCN(C(=O)OC(C)(C)C)CC1 [Example 62]
Data returned: 256 nM

Data request: Give the measured IC50 for C[C@@H]1C(=O)N(C)c2ccc(Nc3cccc(C(=O)N(C)C)c3)cc2N1Cc1ccccc1 [Example 107]
Data returned: 385 nM

Data request: Give the measured IC50 for C[C@@H]1C(=O)N(C)c2ccc(Nc3cccc(S(=O)(=O)N4CC(F)(F)C4)c3)nc2N1C1CCN(C)CC1 [Example 29]
Data returned: 29 nM

Data request: Give the measured IC50 for CC(C)CN1c2nc(Nc3cccc(S(=O)(=O)N[C@H]4CC[C@H](N5CCN(CC6CC6)CC5)CC4)c3)ccc2N(C)C(=O)[C@H]1C [Example 45]
Data returned: 51 nM

Data request: Give the measured IC50 for C[C@@H]1C(=O)N(C)c2ccc(Nc3cccc(C(=O)NC4CCN(C)CC4)c3)nc2N1C1CCCCC1 [Example 95]
Data returned: 475 nM

Data request: Give the measured IC50 for C[C@@H]1C(=O)N(C)c2ccc(Nc3cccc(S(=O)(=O)N4CC5(CCC5)C4)c3)nc2N1C1CCNCC1 [Example 122]
Data returned: 21 nM

Data request: Give the measured IC50 for C[C@@H]1C(=O)N(C)c2ccc(Nc3cccc(C(=O)N[C@H]4CC[C@H](N5CCN(CC6CC6)CC5)CC4)c3)cc2N1C1CCOCC1 [Example 108]
Data returned: 575 nM

Data request: Give the measured IC50 for COc1c(Nc2ccc3c(n2)N(C2CCOCC2)[C@H](C)C(=O)N3C)cccc1C(=O)NC1CCN(C)CC1 [Example 103]
Data returned: 810 nM

Data request: Give the measured IC50 for C[C@@H]1C(=O)N(C)c2ccc(Nc3cccc(S(=O)(=O)NCCN(C)C)c3)nc2N1C1CCNCC1 [Example 128]
Data returned: 66 nM

Hello, the source for this data is patent US20160176867A1, in case you need it.
